Entries and their MIC values follow.
- Test system: Klebsiella pneumoniae
- protocol-details: Antibacterial activity against polymyxin-susceptible Klebsiella pneumoniae ATCC 700721 clinical isolates assessed as reduction in bacterial growth by broth microdilution method
- Assay type: functional
Quick reminder: number only, in µg/mL, skip the unit.

Worked set:
Look up MIC for this molecule: CCC[C@@H]1NC(=O)[C@H](CCN)NC(=O)[C@H](CCN)NC(=O)[C@H](CC(C)C)NC(=O)[C@@H](Cc2ccccc2)NC(=O)[C@H](CCN)NC(=O)[C@@H](NC(=O)[C@H](CCN)NC(=O)[C@@H](NC(=O)[C@H](CCN)NC(=O)CCCC[C@@H](C)CC)[C@@H](C)O)CCNC1=O
2

// repeat for CC[C@H](C)CCCCC(=O)N[C@@H](CCN)C(=O)N[C@H](C(=O)N[C@@H](CCN)C(=O)N[C@H]1CCNC(=O)[C@H](Cc2ccc(O)cc2)NC(=O)[C@H](CCN)NC(=O)[C@H](CCN)NC(=O)[C@H](CC(C)C)NC(=O)[C@@H](Cc2ccccc2)NC(=O)[C@H](CCN)NC1=O)[C@@H](C)O and report
8

// repeat for CC[C@H](C)CCCCC(=O)N[C@@H](CCN)C(=O)N[C@H](C(=O)N[C@@H](CCN)C(=O)N[C@H]1CCNC(=O)[C@H](C(C)(C)O)NC(=O)[C@H](CCN)NC(=O)[C@H](CCN)NC(=O)[C@H](CC(C)C)NC(=O)[C@@H](Cc2ccccc2)NC(=O)[C@H](CCN)NC1=O)[C@@H](C)O and report
4

// repeat for CC[C@H](C)CCCCC(=O)N[C@@H](CCN)C(=O)N[C@H](C(=O)N[C@@H](CCN)C(=O)N[C@H]1CCNC(=O)[C@H](C)NC(=O)[C@H](CCN)NC(=O)[C@H](CCN)NC(=O)[C@H](CC(C)C)NC(=O)[C@@H](Cc2ccccc2)NC(=O)[C@H](CCN)NC1=O)[C@@H](C)O and report
4

Others:
Look up MIC for this molecule: CC[C@H](C)CCCCC(=O)N[C@@H](CCN)C(=O)N[C@H](C(=O)N[C@@H](CCN)C(=O)N[C@H]1CCNC(=O)[C@H](C(C)(C)C)NC(=O)[C@H](CCN)NC(=O)[C@H](CCN)NC(=O)[C@H](CC(C)C)NC(=O)[C@@H](Cc2ccccc2)NC(=O)[C@H](CCN)NC1=O)[C@@H](C)O
8

// repeat for CC[C@H](C)CCCCC(=O)N[C@@H](CCN)C(=O)N[C@H](C(=O)N[C@@H](CCN)C(=O)N[C@H]1CCNC(=O)[C@H]([C@@H](C)O)NC(=O)[C@H](CCN)NC(=O)[C@H](CCN)NC(=O)[C@H](CC(C)C)NC(=O)[C@@H](Cc2ccccc2)NC(=O)[C@H](CCN)NC1=O)[C@@H](C)O and report
1

###

Entries and their MIC values follow.
- Tested on: Klebsiella pneumoniae
- protocol-details: Antibacterial activity against Carbapenem-resistant Klebsiella pneumoniae BM1 clinical isolates assessed as reduction in bacterial growth by broth microdilution method
- Assay type: functional
Quick reminder: number only, in µg/mL, skip the unit.

Look up MIC for this compound: CC[C@H](C)CCCCC(=O)N[C@@H](CCN)C(=O)N[C@H](C(=O)N[C@@H](CCN)C(=O)N[C@H]1CCNC(=O)[C@H](CC)NC(=O)[C@H](CCN)NC(=O)[C@H](CCN)NC(=O)[C@H](CC(C)C)NC(=O)[C@@H](Cc2ccccc2)NC(=O)[C@H](CCN)NC1=O)[C@@H](C)O
0.5

Proceed to the following item.
Look up MIC for this compound: CC[C@H](C)CCCCC(=O)N[C@@H](CCN)C(=O)N[C@H](C(=O)N[C@@H](CCN)C(=O)N[C@H]1CCNC(=O)[C@H](CN)NC(=O)[C@H](CCN)NC(=O)[C@H](CCN)NC(=O)[C@H](CC(C)C)NC(=O)[C@@H](Cc2ccccc2)NC(=O)[C@H](CCN)NC1=O)[C@@H](C)O
4
